Attribution: patent US10266568B2

Recorded measurements of Average (absorbance) SLE, one per entry
- Tested on: autoimmune antibodies (anti-CCP antibody) in serum samples
- Assay Procedure: Sandwich ELISA of patient serum samples on peptide-coated microplates (absorbance at 450 nm)
- Assay type: binding, human
- Condition Label: SLE patient serum samples (25 subjects), diluted 200 times
Positions of bridges follow the written chain, without caps; N, C: chain ends. Non-standard residues stand in square brackets, D forms with d. No end group written: not given here. Cit = NC(=O)NCCC[C@H](N)C(=O)O; Ahx = NCCCCCC(=O)O
Measured Parameter: Average (absorbance) SLE

Substance: CCP11A: HCHQESTXGRARGCG; CCP with 11th amino acid serine substituted by alanine (HCHQEST[Cit]GRARGCG; disulfide 2-14)
Observed Value: 0.3321
--
Substance: CCP: cyclic citrullinated peptide HCHQESTXGRSRGCG, X citrulline (HCHQEST[Cit]GRSRGCG; disulfide 2-14) [reference compound]
Observed Value: 0.2347
--
Substance: CCPPAP: HCHQESTXGPAPGCG; CCP with 10th, 11th, 12th amino acids substituted by proline, alanine, proline (HCHQEST[Cit]GPAPGCG; disulfide 2-14)
Observed Value: 0.3287
--
Substance: CCP12P: HCHQESTXGRSPGCG; CCP with 12th amino acid substituted by proline (HCHQEST[Cit]GRSPGCG; disulfide 2-14)
Observed Value: 0.3619
--
Substance: ZZH17: ZZHSHQESTXGRSRGSG; aminocaproic acid (Z) added to N-terminal of HSH15 ([Ahx][Ahx]HSHQEST[Cit]GRSRGSG)
Observed Value: 0.2738
--
Substance: HSH15: HSHQESTXGRSRGSG; CCP with disulfide bond-forming cysteine substituted with serine, X citrulline (HSHQEST[Cit]GRSRGSG)
Observed Value: 0.2704
--
Substance: RF: rheumatoid factor peptide EGLHNHY (listed as Homo sapiens) [reference compound]
Observed Value: 0.3417
